Molecular target: T1, human FSTL1 (construct not stated) (human, UniProt Q12841 21-308)
T1 construct: also called human FSTL1 antigen; FSTL1 (R&D Systems, Inc. Cat#1694-FN-050)
T1 sequence: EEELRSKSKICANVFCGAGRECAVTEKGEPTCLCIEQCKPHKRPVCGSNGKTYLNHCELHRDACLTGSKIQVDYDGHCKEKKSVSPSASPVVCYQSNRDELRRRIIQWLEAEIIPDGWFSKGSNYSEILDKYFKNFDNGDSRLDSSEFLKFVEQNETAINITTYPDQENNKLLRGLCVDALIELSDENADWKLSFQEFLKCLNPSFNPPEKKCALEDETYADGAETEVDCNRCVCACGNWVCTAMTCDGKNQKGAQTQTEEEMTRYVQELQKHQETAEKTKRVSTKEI
Test: SPR (Biacore T-200), captured antibody, human FSTL1 10 µg/ml; also: time not given here
Each entry below lists one item and its recorded Dissociation amount (RU) value.
Just the number in RU, nothing appended.

{"Binder": "anti-FSTL1 antibody clone #13 (chicken-mouse chimeric antibody) (antibody, mouse IgG1, kappa, V domains shown) VH: AVTLDESGGGLQTPGGGLSLVCKASGFTFSSVTMQWVRQAPGKGLEWVASICSGSSTYYGPAVKGRATISRDNGQNTVRLQLNNLRAEDTATYYCAKIVGRGRWSCTSAAYNIDAWGHGTEVIVSS VL: ASTQPSSVSANPGETVKITCSGGGNNYGWYQQKSPGSAPVTVIYNNNNRPSNIPSRFSGSKSGSTNTLTITGVQAEDEAVYYCGSYDSSSDSGIFGAGTTLTVLG", "Quantitative Result": 0.2}
{"Binder": "anti-FSTL1 antibody clone #8-7 (chicken-mouse chimeric antibody) (antibody, mouse IgG1, kappa, V domains shown) VH: AVTLDESGGGLQTPGGGLSLVCKGSGFTFSSFNMFWVRQAPGKGLEWVAGIGKDGVPKYGAAVDGRATISKDNGQSTLRLQLNNLRAEDTGTYFCAKAAGGCSYDWCGIYAGDIDTWGHGTEVIVSS VL: ASTQPSSVSANPGEAVKITCSGGSGSYYGWYQQKSPGSAPVTVIYNNNQRPSDIPSRFSGSKSGSTATLTITGVQAEDEAVYFCGGYDSSTGHGGIFGAGTTLTVLG", "Quantitative Result": 11.8}
{"Binder": "anti-FSTL1 antibody clone #5-8 (chicken-mouse chimeric antibody) (antibody, mouse IgG1, kappa, V domains shown) VH: AVTLDESGGGLQTPGGGLSLVCKGSGFTFSSFNMFWVRQAPGKGLEWVAGIGKDGVPKYGTAVDGRATISKDNGQSTMRLQLNNLRAEDTGTYFCAKAAGGCSYDWCGIYTGDIDTWGHGTEVIVSS VL: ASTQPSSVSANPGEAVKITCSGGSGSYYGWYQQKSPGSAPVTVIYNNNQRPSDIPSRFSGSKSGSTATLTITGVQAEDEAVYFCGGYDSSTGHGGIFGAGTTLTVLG", "Quantitative Result": 3.4}

Requested field: Dissociation amount (RU). Item: anti-FSTL1 antibody clone #5-3 (chicken-mouse chimeric antibody) (antibody, mouse IgG1, kappa, V domains shown) VH: AVTLDESGGGLQTPGGALSLVCKGSGFSFSSFNMFWVRQAPGKGLEWVAGIGKDGVPKYGAAVDGRATISKDNGQSTMRLQLNNLRAEDTGTYFCAKAAGGCSYDWCGIYAGDIDTWGHGTEVIVSS VL: ASTQPSSVSANPGETVKITCSGGSGYYYGWYQQKSPGSVPVTVIYNNNNRPSDIPSRFSGSKSGSTGTLTITGVRAEDEAVYYCGGYDNSGTGIFGAGTTLTVLG 8.8

Let us now turn to anti-FSTL1 antibody clone #5-2 (chicken-mouse chimeric antibody) (antibody, mouse IgG1, kappa, V domains shown) VH: AVTLDESGGGLQTPGGGLSLVCKGSGFTFSSFNMFWVRQAPGKGLEWVAGVGKDGGTGYGAAVDGRATISKDNGQSTLRLQLNNLRAEDTGTYYCAKAAGGCSYGWCGSYVGDIDAWGHGTEVIVSS VL: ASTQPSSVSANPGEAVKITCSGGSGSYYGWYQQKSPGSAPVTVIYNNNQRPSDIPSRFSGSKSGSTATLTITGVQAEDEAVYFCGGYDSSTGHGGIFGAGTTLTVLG 7.1

Let us now turn to anti-FSTL1 antibody clone #6-55 (chicken-mouse chimeric antibody) (antibody, mouse IgG1, kappa, V domains shown, also called Anti-FSTL1 mAb (#6-55)) VH: AVTLDESGGGLQTPGGALSLVCKGSGFTFTSVTMQWVRQAPGKGLEWVASVCSGSSTYYAPAVKGRATISRDNGQSTVRLQLSNLRPEDTGTYYCAKIAGRARWSCTSAAYNIDAWGHGTEVIVSS VL: ASTQPSSVSAIPGETVKITCSGGGNNYGWYQQRSPGSAPVTVIYYNDNRPSNIPSRFSGSTSGSTSTLTITGVQADDEAIYYCGSWDSNTDSGIFGAGTTLTVLG 1.5

Let us now turn to anti-FSTL1 antibody clone #8-8 (chicken-mouse chimeric antibody) (antibody, mouse IgG1, kappa, V domains shown) VH: AVTLDESGGGLQTPGGALSLVCKGSGFTFSSFNMFWVRQAPGKGLEWVAGIGKDGVPKYGAAVDGRATISKDNGQSTMRLQLNNLRAEDTGTYYCAKAAGGCSYGWCGAYTGDIDTWGHGTEVIVSS VL: ASTQPSSVSANPGEAVKITCSGGSGSYYGWYQQKSPGSAPVTVIYNNNQRPSDIPSRFSGSKSGSTATLTITGVQVEDEAVYFCGGYDSSTGHGGIFGAGTTLTVLG 4.7

Let us now turn to anti-FSTL1 antibody clone #7-34 (chicken-mouse chimeric antibody) (antibody, mouse IgG1, kappa, V domains shown) VH: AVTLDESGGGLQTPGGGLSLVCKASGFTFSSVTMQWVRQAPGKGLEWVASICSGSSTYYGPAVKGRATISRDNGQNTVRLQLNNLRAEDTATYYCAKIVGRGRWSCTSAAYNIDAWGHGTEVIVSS VL: ASTQPSSVSANPGETVKITCSGGGNNYGWYQQKSPGSAPVTVIYYNNNRPSNIPSRFSGSTSGSTSTLTITGVQAEDEAVYYCGSYEGSTDSGIFGAGTTLTVLG 2.5

Let us now turn to anti-FSTL1 antibody clone #10 (chicken-mouse chimeric antibody) (antibody, mouse IgG1, kappa, V domains shown) VH: AVTLDESGGGLQTPGGALSLVCKASGFFFFRIYDMGWVRQAPGKGLEWVAGIDDYGRYTGYGSAVKGRATISRDNGQSTVRLQLNNLRAEDTGTYYCARGAGTGCNSAGCGAYAGSIDAWGHGTEVIVSS VL: ASTQPSSVSANPGETVKLTCSGGGSRYGWYQQKSPGSAPVTVIYYNDKRPSDIPSRFSGSKSGSTATLTITGVQAEDEAVYFCGGYDGSRDAGIFGAGTTLTVLG 6

Let us now turn to anti-FSTL1 antibody clone #8-4 (chicken-mouse chimeric antibody) (antibody, mouse IgG1, kappa, V domains shown) VH: AVTLDESGGGLQTPGGGLSLVCKGSGFTLSSFNMFWVRQAPGKGLEWVAGVGKDGGTAYGAAVDGRATISRDSGQSTVRLQLNNLRAEDTGTYFCAKAAGGCSYSWCGAYVGDLDAWGHGTEVIVSS VL: ASSQPSSVSANPGETVKITCSGGSGYYYGWYQQKSPGSAPVTVIYNNDNKPSDIPSRFSGSKSGSTGTLTITGVQVEDEAVYFCGGYDNSGTGIFGAGTTLTVLG 6.2

Let us now turn to anti-FSTL1 antibody clone #5-43 (chicken-mouse chimeric antibody) (antibody, mouse IgG1, kappa, V domains shown) VH: AVTLDESGGGLQTPGGGLSLVCKGSGFTFSSFNMFWVRQAPGKGLEWVAGIGKDGGTGYGAAVDGRATISKDSGQSTLRLQLNNLRAEDTGTYYCAKAAGGCSYDWCGAYTGDIDTWGHGTEVIVSS VL: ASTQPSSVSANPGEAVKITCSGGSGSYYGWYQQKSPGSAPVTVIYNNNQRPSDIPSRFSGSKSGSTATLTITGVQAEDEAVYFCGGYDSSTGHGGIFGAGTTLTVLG 3.1
